Test system: RPMI-8226 leukemia
Test: NCI tumour cell line growth inhibition, 48 h

{"MOLECULE": "COC(=O)c1c(OC)cc2cc3c(c(O)c2c1C)C(=O)C1(O)C(=O)C=C(OC)C(OC(=O)CC(C)N)=C1C3=O (stereo not given)", "BOUND_TYPE": "=", "TGI, µM": 39.7}
{"MOLECULE": "COc1cc2nnn3c4ncccc4c(N=O)c3c2cc1OC", "BOUND_TYPE": ">", "TGI, µM": 100}
{"MOLECULE": "COc1cc([C@H]2c3[nH]c4ccccc4c3C[C@H]3COC(=O)N32)cc(OC)c1O", "BOUND_TYPE": "=", "TGI, µM": 11.1}
{"MOLECULE": "C=C[C@@](C)(/C=C/c1ccc(O)cc1)CCC=C(C)C", "BOUND_TYPE": "=", "TGI, µM": 32.3}
{"MOLECULE": "O=S1(=O)OCCOS(=O)(=O)C1Cc1nc2ccccc2[nH]1", "BOUND_TYPE": ">", "TGI, µM": 100}

---

Recorded GI50 values for a group of compounds are listed next.
Test system: SK-MEL-5 melanoma
Assay: NCI tumour cell line growth inhibition, 48 h

{"COMPOUND": "O=C(Nc1cc(S(=O)(=O)c2ccc(Cl)cc2)ccc1Cl)c1cc(I)cc(I)c1O", "GI50": "14.9 µM"}
{"COMPOUND": "COc1cc(-n2cc(-c3cc(O)c(C/C=C(\\C)CCC=C(C)C)c(O)c3)nn2)cc2c1O[C@]1(C)CC[C@@H](O)C(C)(C)[C@H]1C2", "GI50": "1.33 µM"}
{"COMPOUND": "COc1ccc2c(c1)nc1n2C(c2ccc(F)cc2)SC1 (stereo not drawn)", "GI50": "15.4 µM"}

---

Test system: U251 CNS
Outcome codes: Y (active), N (inactive)

{"SMILES_REPRESENTATION": "O=C(Nc1cc(S(=O)(=O)c2ccc(Cl)cc2)ccc1Cl)c1cc(I)cc(I)c1O", "SYSTEM": "U251 CNS", "CATEGORY": "N"}
{"SMILES_REPRESENTATION": "CC(=O)[CH-]C(=O)c1ccccc1.CC(=O)[CH-]C(=O)c1ccccc1.[CH2-]CCC.[CH2-]CCC.[Sn+4]", "SYSTEM": "U251 CNS", "CATEGORY": "N"}
{"SMILES_REPRESENTATION": "COc1cc2nnn3c4ncccc4c(N=O)c3c2cc1OC", "SYSTEM": "U251 CNS", "CATEGORY": "N"}
{"SMILES_REPRESENTATION": "CCCCCCOc1ccc(C(=N)N(CCCC)CCCC)c2ccccc12", "SYSTEM": "U251 CNS", "CATEGORY": "N"}
{"SMILES_REPRESENTATION": "Fc1c[c-]c(-c2ccccn2)c(F)c1.[CH3-].[Pt+2].c1ccc(P(C[PH+](c2ccccc2)c2ccccc2)c2ccccc2)cc1", "SYSTEM": "U251 CNS", "CATEGORY": "Y"}
{"SMILES_REPRESENTATION": "O=C(Cc1ccc(/C=C/C(=O)c2ncc[nH]2)cc1)Nc1ccc(C(F)(F)F)cc1", "SYSTEM": "U251 CNS", "CATEGORY": "N"}

---

// values below are reported TGI
Test system: RXF-631 renal
Experiment: NCI tumour cell line growth inhibition, 48 h
MEASURE: TGI

{"COMPOUND": "CC[C@@]1(O)C(=O)OCc2c1cc1n(c2=O)Cc2cc3c(N)cccc3nc2-1", "RESULT": "1.69 µM"}
{"COMPOUND": "CC1(C)CC(=O)c2c(oc3cc(O)c(O)cc23)C1", "RESULT": "> 100 µM"}
{"COMPOUND": "Cc1ccccc1NC(=O)C(=O)CC(=O)c1ccc([N+](=O)[O-])cc1", "RESULT": "> 100 µM"}
{"COMPOUND": "CCN(CC)CCCCC1CCN(CC(=O)N2c3ccccc3NC(=O)CC2C)CC1 (stereo unspecified)", "RESULT": "> 100 µM"}
{"COMPOUND": "c1ccc(NC[Si]23OCCN(CCO2)CCO3)cc1", "RESULT": "> 100 µM"}
{"COMPOUND": "CC(C)(C)CC(C)(C)c1ccc(OCCOCC[N+](C)(C)Cc2ccccc2)cc1", "RESULT": "34.2 µM"}

---

System: UO-31 renal
Experiment: NCI tumour cell line growth inhibition, 48 h
MEASURE: TGI

{"MOLECULE": "O=C(c1ccco1)C1CC(c2ccc3ccccc3c2O)=NN1c1ccc([N+](=O)[O-])cc1[N+](=O)[O-] (stereo unspecified)", "RESULT": "> 100 µM"}
{"MOLECULE": "CC(C)(C)[Si](C)(C)OCC1OC(n2cnc3c(N)ncnc32)C(O)C1O (stereo unspecified)", "RESULT": "> 100 µM"}
{"MOLECULE": "C/C(=N\\Nc1ccccc1)C(CN(C)C)C(c1ccccc1)c1c(O)c2ccccc2oc1=O (stereo unspecified)", "RESULT": "> 100 µM"}
{"MOLECULE": "O=C(O)Cn1ccnc1[N+](=O)[O-]", "RESULT": "> 100 µM"}
{"MOLECULE": "O=CNNC(=O)Nc1ccc(Cl)cc1", "RESULT": "> 100 µM"}
{"MOLECULE": "O=C1C=C(N2CCN(c3ccccn3)CC2)C(=O)c2c(O)ccc(O)c21", "RESULT": "> 46.4 µM"}
{"MOLECULE": "CC1(C)OC(COCCOCCCCCO)C(COCCOCCCCCO)O1 (stereo unspecified)", "RESULT": "> 100 µM"}
{"MOLECULE": "Cc1c(C(=O)OCc2ccccc2)[n+](=O)c2cc(F)c(F)cc2n1[O-]", "RESULT": "3.36 µM"}
{"MOLECULE": "O=[N+]([O-])/C=C/c1cn(CCCCCn2cc(/C=C/[N+](=O)[O-])c3ccccc32)c2ccccc12", "RESULT": "9.78 µM"}
{"MOLECULE": "O=C(O)C1C(C(=O)O)C2(Cl)C(Cl)=C(Cl)C1(Cl)C2(Cl)Cl.[Cd] (stereo unspecified)", "RESULT": "39.3 µM"}
{"MOLECULE": "CC1(C)CCC2(C(=O)OC3OC(CO)C(O)C(O)C3O)CCC3(CO)C(=CCC4C5(C)CC(O)C(O)C(C)(C(=O)OC6OC(CO)C(O)C(O)C6O)C5CCC43C)C2C1 (stereo unspecified)", "RESULT": "> 100 µM"}
{"MOLECULE": "COC(=O)c1ccc(/C=C2\\CCc3ccccc3C2=O)cc1", "RESULT": "> 100 µM"}
{"MOLECULE": "O=C(O)C1C2C=CC(O2)C1C(=O)Nc1ncccn1 (stereo unspecified)", "RESULT": "> 100 µM"}
{"MOLECULE": "CCOC(=O)/C(C#N)=C/N(CC)/N=C/c1ccccc1", "RESULT": "> 100 µM"}
{"MOLECULE": "CC(C)(CO)N=Cc1ccccc1[O-].CC(C)(CO)N=Cc1ccccc1[O-].[Co+2]", "RESULT": "> 100 µM"}
{"MOLECULE": "O=P(O)(O)CN1CCNCCN(CP(=O)(O)O)CCNCC1", "RESULT": "> 100 µM"}
{"MOLECULE": "Cc1nnc(N=Nc2c(O)[nH]c3ccccc23)n1N", "RESULT": "> 100 µM"}
{"MOLECULE": "COc1ccc(CC2=NCCc3cc(OC)c(OC)cc32)cc1Br", "RESULT": "> 100 µM"}
{"MOLECULE": "CC(C)(C)c1cc(CCC(=O)Nc2ccc(Cl)cc2Cl)nc(N)n1", "RESULT": "> 100 µM"}
{"MOLECULE": "CCOC(=O)C1CCCCc2sc(N)c(C#N)c21 (stereo unspecified)", "RESULT": "> 100 µM"}
{"MOLECULE": "C/C(=N/O)c1ccc2c(c1)C(=NO)c1cc(/C(C)=N/O)ccc1-2", "RESULT": "28.3 µM"}

---

Tested on: K-562 leukemia
Assay: NCI tumour cell line growth inhibition, 48 h; in the data active means GI50 below about 0.43 µM; inactive means the rest
Classes used: yes = active, no = inactive

{"COMPOUND": "C/C(=N\\n1c(N)c(C#N)c(-c2ccc(Cl)cc2)c(C#N)c1=O)c1ccncc1", "CATEGORY": "no"}
{"COMPOUND": "COc1ccc(NC(=O)c2sc3nc4c(cc3c2N)CCCC4)cc1", "CATEGORY": "yes"}
{"COMPOUND": "NC(=O)c1cc(I)ccc1NC(=O)COc1ccccc1", "CATEGORY": "yes"}
{"COMPOUND": "O=C(/C=C/c1cn(-c2ccccc2)nc1-c1ccc([N+](=O)[O-])cc1)c1ccc(Cl)cc1", "CATEGORY": "yes"}
{"COMPOUND": "CC(C)(CO)N=Cc1ccccc1[O-].CC(C)(CO)N=Cc1ccccc1[O-].[Co+2]", "CATEGORY": "no"}
{"COMPOUND": "Oc1[nH]c2ccccc2c1/C=c1/cc2c(c(-c3ccc(C(F)(F)F)cc3)n1)=Nc1ccccc1-2", "CATEGORY": "no"}
{"COMPOUND": "CCN(CC)CCOc1ccc(/C=C2\\CC3C4CC=C5C[C@@H](OC(C)=O)CC[C@]5(C)C4CC[C@]3(C)C2=O)cc1OC (stereo not given in full)", "CATEGORY": "no"}
{"COMPOUND": "CCc1cccc(CC)c1/C=C/c1cncc(C(=O)NC)c1", "CATEGORY": "no"}
{"COMPOUND": "COc1cc2cc(Oc3ccc(NC(=O)c4cccc5c4OCCO5)cc3)c(C)nc2cc1OC", "CATEGORY": "no"}
{"COMPOUND": "COc1ccc(C(=O)C[C@]2(O)C(=O)Nc3c(Cl)ccc(Cl)c32)cc1", "CATEGORY": "yes"}
